Every entry's value here was drawn from patent US20190330224A1.

- System: C. parapsilosis ATCC 22019
- Assay text: Anti-Fungal Activity Assay (broth microtiter MIC), C. parapsilosis
- Assay type: cell-based, Candida parapsilosis
- Test parameters: Lodderomyces parapsilosis, ATCC22019, 48 h, 3 replicates; MIC recorded at 48 h; read-out: MIC C. parapsilosis ATCC 22019
I'd be grateful if you could share measured MIC for these entries.

Given the entry COc1ccc(F)cc1[C@H](Cn1c(=O)n([C@@H]2CCCNC2=O)c(=O)c2c(C)c(-n3nccn3)sc21)OC1CCOCC1 , report its measured MIC.
2.1 to 4 µg/mL

Fill in the blank: the reported MIC of COc1ccc(F)cc1[C@H](Cn1c(=O)n(C2CCCNC2=O)c(=O)c2c(C)c(-n3nccn3)sc21)OC1CCOCC1 (stereo partly drawn) is ____.
1.1 to 2 µg/mL

Can you share its MIC? I mean this compound: COCCO[C@@H](Cn1c(=O)n([C@@]2(C)CCC(=O)N(C)C2)c(=O)c2c(C)c(-n3nccn3)sc21)c1cc(F)ccc1OC
2.1 to 4 µg/mL

// for each compound in input: emit MIC
1. COc1ccc(F)cc1[C@H](Cn1c(=O)n(C2CCCN(C)C2=O)c(=O)c2c(C)c(-n3nccn3)sc21)OCCO (stereo partly drawn)
2. COc1ccc(F)cc1[C@H](Cn1c(=O)n([C@@H]2CCN(C)C2=O)c(=O)c2c(C)c(-n3nccn3)sc21)OCCC#N
3. CCN1CCC(n2c(=O)c3c(C)c(-n4nccn4)sc3n(C[C@H](OCCOC)c3cc(F)ccc3OC)c2=O)C1=O (stereo partly drawn)

1. 2.1 to 4 µg/mL
2. 2.1 to 4 µg/mL
3. 2.1 to 4 µg/mL

====

pIC50: −log10 of the molar value.
Quick note: these are pIC50 numbers for system: Fungal ACC2 (UniProt Q00955)
Sequence (Q00955 whole entry): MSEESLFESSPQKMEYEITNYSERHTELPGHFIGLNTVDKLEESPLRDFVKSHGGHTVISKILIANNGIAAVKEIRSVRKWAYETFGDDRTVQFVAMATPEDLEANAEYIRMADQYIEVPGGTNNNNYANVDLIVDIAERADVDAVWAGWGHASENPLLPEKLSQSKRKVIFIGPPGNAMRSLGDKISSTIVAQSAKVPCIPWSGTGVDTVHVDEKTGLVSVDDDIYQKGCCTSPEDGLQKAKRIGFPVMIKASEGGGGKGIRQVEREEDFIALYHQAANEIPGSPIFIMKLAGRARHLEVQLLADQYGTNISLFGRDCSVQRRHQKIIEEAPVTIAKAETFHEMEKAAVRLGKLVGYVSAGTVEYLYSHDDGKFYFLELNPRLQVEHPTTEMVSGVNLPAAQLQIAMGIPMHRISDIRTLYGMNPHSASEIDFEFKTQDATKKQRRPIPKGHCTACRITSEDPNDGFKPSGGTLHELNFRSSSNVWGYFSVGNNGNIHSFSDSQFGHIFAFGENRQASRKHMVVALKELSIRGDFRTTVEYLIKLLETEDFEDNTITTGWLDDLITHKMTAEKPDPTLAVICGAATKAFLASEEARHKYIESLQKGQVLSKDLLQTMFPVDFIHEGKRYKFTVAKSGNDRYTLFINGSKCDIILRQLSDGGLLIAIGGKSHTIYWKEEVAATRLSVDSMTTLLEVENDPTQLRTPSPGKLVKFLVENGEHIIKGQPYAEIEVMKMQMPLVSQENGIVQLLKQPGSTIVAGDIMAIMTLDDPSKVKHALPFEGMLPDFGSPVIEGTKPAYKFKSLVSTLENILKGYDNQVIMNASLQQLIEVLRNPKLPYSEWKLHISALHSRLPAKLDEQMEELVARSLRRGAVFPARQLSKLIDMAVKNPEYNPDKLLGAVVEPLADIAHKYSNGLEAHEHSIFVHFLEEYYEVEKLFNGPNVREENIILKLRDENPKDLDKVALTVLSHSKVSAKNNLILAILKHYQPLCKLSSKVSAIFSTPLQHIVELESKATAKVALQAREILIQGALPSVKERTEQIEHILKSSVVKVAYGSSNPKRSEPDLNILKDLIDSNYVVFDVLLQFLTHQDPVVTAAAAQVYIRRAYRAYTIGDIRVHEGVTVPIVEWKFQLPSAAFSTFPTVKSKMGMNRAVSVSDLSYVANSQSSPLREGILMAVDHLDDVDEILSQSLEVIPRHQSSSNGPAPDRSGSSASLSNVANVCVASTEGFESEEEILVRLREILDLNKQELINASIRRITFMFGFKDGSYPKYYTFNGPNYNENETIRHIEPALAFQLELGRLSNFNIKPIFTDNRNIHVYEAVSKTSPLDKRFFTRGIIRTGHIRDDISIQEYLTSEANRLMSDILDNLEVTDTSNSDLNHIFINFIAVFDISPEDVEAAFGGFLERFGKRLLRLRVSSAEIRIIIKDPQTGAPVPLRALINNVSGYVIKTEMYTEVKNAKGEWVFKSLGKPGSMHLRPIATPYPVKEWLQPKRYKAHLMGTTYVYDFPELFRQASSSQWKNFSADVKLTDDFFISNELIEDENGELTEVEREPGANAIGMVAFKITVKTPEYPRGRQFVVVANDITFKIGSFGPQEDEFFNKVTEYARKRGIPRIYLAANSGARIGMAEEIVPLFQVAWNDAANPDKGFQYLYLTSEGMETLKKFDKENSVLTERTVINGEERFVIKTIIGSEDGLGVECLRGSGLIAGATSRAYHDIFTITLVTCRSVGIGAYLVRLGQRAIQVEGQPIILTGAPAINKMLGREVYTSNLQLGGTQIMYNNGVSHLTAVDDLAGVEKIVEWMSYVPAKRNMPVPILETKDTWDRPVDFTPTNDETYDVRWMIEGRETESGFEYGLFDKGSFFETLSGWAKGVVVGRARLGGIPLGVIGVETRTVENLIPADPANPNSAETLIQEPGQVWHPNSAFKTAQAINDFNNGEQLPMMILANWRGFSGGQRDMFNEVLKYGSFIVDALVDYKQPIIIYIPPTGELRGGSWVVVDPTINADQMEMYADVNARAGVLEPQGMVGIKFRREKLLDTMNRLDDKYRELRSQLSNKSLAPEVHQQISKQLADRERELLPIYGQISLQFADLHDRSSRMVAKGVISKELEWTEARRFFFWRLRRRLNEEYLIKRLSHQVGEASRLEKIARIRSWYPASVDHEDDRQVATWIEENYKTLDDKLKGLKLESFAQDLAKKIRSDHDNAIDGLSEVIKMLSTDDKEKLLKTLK

Item under review: COCCO[C@@H](Cn1c(=O)n([C@@]2(C)CCNC2=O)c(=O)c2c(C)c(-n3nccn3)sc21)c1cc(F)ccc1OC . Reported pIC50?
< 6.00

Could you report pIC50 for every entry in the following list?
1. COc1ccc(F)cc1[C@H](Cn1c(=O)n([C@@H]2CCNC2=O)c(=O)c2c(C)c(-n3nccn3)sc21)OCCC#N
2. COCCO[C@@H](Cn1c(=O)n(C2CCN(C)C2=O)c(=O)c2c(C)c(-n3nccn3)sc21)c1cc(F)ccc1OC (stereo partly drawn)

1. 8.70 to 9.15
2. 8.00 to 8.70

====

- Test system: Fungal ACC2 (UniProt Q00955)
- Test parameters: read-out: Fungal ACC2 (IC50, in vitro ACC2 inhibition)
Record form. Attribute: IC50. Fill in for each entry.

Previously resolved entries follow.
Name the recorded IC50 for COc1ccccc1[C@@H](O)Cn1c(=O)n([C@H]2CCN(C)C2=O)c(=O)c2c(C)c(-n3nccn3)sc21 [Compound I-165] .
2 to 10 nM

Data request, read-out IC50, for COc1ccc(F)cc1[C@H](Cn1c(=O)n([C@@H]2CCNC2=O)c(=O)c2c(C)c(-n3nccn3)sc21)O[C@H]1C[C@@H](O)C1 [Compound I-184]
0.7 to 2 nM

Please report the recorded IC50 for COc1ccc(F)cc1[C@H](Cn1c(=O)n([C@@H]2CCCNC2=O)c(=O)c2c(C)c(-n3nccn3)sc21)OCCC#N [Compound I-111] .
0.7 to 2 nM

Could you share which IC50 value was measured for COc1ccccc1[C@@H](O)Cn1c(=O)n([C@@H]2CCN(C)C2=O)c(=O)c2c(C)c(-n3nccn3)sc21 [Compound I-169] ?
0.7 to 2 nM

Field request: IC50 | item: COCCO[C@@H](Cn1c(=O)n([C@H]2CCN(C)C2=O)c(=O)c2c(C)c(-n3nccn3)sc21)c1cc(F)ccc1OC [Compound I-27]
2 to 10 nM

For COc1ccc(F)cc1[C@H](Cn1c(=O)n([C@@H]2CCN(C)C2=O)c(=O)c2c(C)c(-n3nccn3)sc21)O[C@H]1C[C@H](O)C1 [Compound I-185] , what is its reported IC50?
0.7 to 2 nM

Find the recorded IC50 belonging to COc1ccc(F)cc1[C@@H](O)Cn1c(=O)n([C@@H]2CCN(C)C2=O)c(=O)c2c(C)c(-n3nccn3)sc21 [Compound I-166] and report it.
0.7 to 2 nM

Param item = COc1ccc(F)cc1[C@H](Cn1c(=O)n([C@@]2(C)CC(=O)N(C)C2)c(=O)c2c(C)c(-n3nccn3)sc21)OCCO [Compound I-123] ; retrieve measured IC50.
0.7 to 2 nM

The following compounds each have a reported value; give each one's IC50.
1. COc1ccc(F)cc1[C@H](Cn1c(=O)n([C@@H]2CC(=O)N(C)C2)c(=O)c2c(C)c(-n3nccn3)sc21)OCCO [Compound I-93]
2. COCCO[C@@H](Cn1c(=O)n([C@H]2CCN(C)C2=O)c(=O)c2c(C)c(-n3cccn3)sc21)c1cc(F)ccc1OC [Compound I-43]

0.7 to 2 nM
10 to 100 nM

Give me IC50 for each of these compounds, listed below.
1. COCCO[C@@H](Cn1c(=O)n([C@@]2(C)CC(=O)N(C)C2)c(=O)c2c(C)c(-n3nccn3)sc21)c1cc(F)ccc1OC [Compound I-122]
2. COCCO[C@@H](Cn1c(=O)n([C@H]2CCCN(C)C2=O)c(=O)c2c(C)c(-n3cccn3)sc21)c1cc(F)ccc1OC [Compound I-47]
3. COc1ccccc1[C@H](Cn1c(=O)n([C@H]2CCCN(C)C2=O)c(=O)c2c(C)c(-c3ncco3)sc21)OCCO [Compound I-66]
4. COCCO[C@@H](Cn1c(=O)n([C@@H]2CCN(C(=O)C(C)C)C2)c(=O)c2c(C)c(-n3nccn3)sc21)c1cc(F)ccc1OC [Compound I-86]
5. COc1ccc(F)cc1[C@H](Cn1c(=O)n([C@@H]2CCN(C)C2=O)c(=O)c2c(C)c(-n3nccn3)sc21)OC1CCOCC1 [Compound I-36]
6. COc1ccc(F)cc1[C@H](Cn1c(=O)n([C@@H]2CCCN(C)C2=O)c(=O)c2c(C)c(-n3nccn3)sc21)OCCC#N [Compound I-117]
7. COCCO[C@@H](Cn1c(=O)n([C@]2(C)CNC(=O)C2)c(=O)c2c(C)c(-n3nccn3)sc21)c1cc(F)ccc1OC [Compound I-115]

2 to 10 nM
2 to 10 nM
2 to 10 nM
0.7 to 2 nM
2 to 10 nM
0.7 to 2 nM
0.7 to 2 nM

Answer for every listed entry: what is its IC50? The entries follow.
1. COc1ccc(F)cc1[C@H](Cn1c(=O)n([C@H]2CCN(C)C2=O)c(=O)c2c(C)c(-n3nccn3)sc21)OC [Compound I-168]
2. COc1ccc(F)cc1[C@H](Cn1c(=O)n([C@@H]2CCNC2=O)c(=O)c2c(C)c(-c3ncco3)sc21)O[C@H]1CC[C@@H](O)CC1 [Compound I-191]
3. COCCO[C@@H](Cn1c(=O)n([C@]2(C)CCCNC2=O)c(=O)c2c(C)c(-n3nccn3)sc21)c1cc(F)ccc1OC [Compound I-124]
4. COc1ccc(F)cc1[C@H](Cn1c(=O)n([C@H]2CCCNC2=O)c(=O)c2c(C)c(-n3nccn3)sc21)OCCC#N [Compound I-110]

1. 2 to 10 nM
2. 0.7 to 2 nM
3. 2 to 10 nM
4. 0.7 to 2 nM

====

Please go through the items and note down their MIC.
- System: C. parapsilosis ATCC 22019
- Assay text: Anti-Fungal Activity Assay (broth microtiter MIC), C. parapsilosis
- Format: cell-based, Candida parapsilosis
- Test parameters: Lodderomyces parapsilosis, ATCC22019, 48 h, 3 replicates; MIC recorded at 48 h; read-out: MIC C. parapsilosis ATCC 22019

Previously resolved entries follow.
MIC lookup needed for COc1ccc(F)cc1[C@H](Cn1c(=O)n(C2CCN(C(C)C)C2=O)c(=O)c2c(C)c(-n3nccn3)sc21)OC1CCOCC1 (stereo partly drawn) [Compound I-12] , thanks.
0.25 to 1 mg/L

# get_value(readout='MIC', item= COCCO[C@@H](Cn1c(=O)n([C@]2(C)CCCN(C)C2=O)c(=O)c2c(C)c(-n3nccn3)sc21)c1cc(F)ccc1OC )
2.1 to 4 mg/L

Consider the record given below.
Can you look up the measured MIC of COc1ccc(F)cc1[C@H](Cn1c(=O)n([C@@H]2CCN(C)C2=O)c(=O)c2c(C)c(-n3cccn3)sc21)O[C@H]1CC[C@@H](O)CC1 for me?
1.1 to 2 mg/L

====

Quick note: these are IC50 numbers for system: Fungal ACC2 (UniProt Q00955)

// fetch Fungal ACC2 (UniProt Q00955) IC50 for COc1ccc(F)cc1[C@H](Cn1c(=O)n([C@@]2(C)CNC(=O)C2)c(=O)c2c(C)c(-n3nccn3)sc21)OCCO [Compound I-118]
2 to 10 nM

Provide the documented IC50 with Fungal ACC2 (UniProt Q00955) as the system for COc1ccc(F)cc1[C@H](Cn1c(=O)n([C@@H]2CCCN(C)C2=O)c(=O)c2c(C)c(-n3nccn3)sc21)OCCO [Compound I-73]
0.7 to 2 nM

Request - read-out IC50 | tested on Fungal ACC2 (UniProt Q00955) | compound COc1ccc(F)cc1[C@H](Cn1c(=O)n([C@]2(C)CNC(=O)C2)c(=O)c2c(C)c(-n3nccn3)sc21)OCCO [Compound I-119]
2 to 10 nM

Continuing:
For the record COc1ccc(F)cc1[C@H](Cn1c(=O)n([C@@H]2CCCNC2=O)c(=O)c2c(C)c(-n3nccn3)sc21)OCCO [Compound I-71] , what value of IC50 is listed for Fungal ACC2 (UniProt Q00955)?
0.7 to 2 nM
